- systemTested: Calcium/calmodulin-dependent protein kinase type II subunit alpha (Homo sapiens);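 note: reported values are averages (mean inhibition of CAMK2A)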
- assayConditions: at 0.1 µM
outcomeMeasure: inhibition

{"columns": ["compound", "testValue"],
 "data": [
  ["COc1cc(C)c(NC(=O)CN(C)C)cc1Nc1nc(Nc2cccc(F)c2C(N)=O)c2cc[nH]c2n1", "3.26%"],
  ["Cn1cc(C=C2C(=O)Nc3cccnc32)c2ccccc21", "1.58%"],
  ["CCCN1CCC=C(c2ccc(Nc3nc(Nc4ccccc4C(N)=O)c4cc[nH]c4n3)c(C)c2)C1", "3.75%"],
  ["CC(C)=Cc1cccc2c1/C(=N/Nc1ccc(S(N)(=O)=O)cc1)C(=O)N2", "2.92%"],
  ["COc1cc(C=NNc2ncnc3c2cnn3-c2ccccc2)ccc1O", "3.14%"],
  ["CCn1c(-c2nonc2N)nc2cnc(Oc3cccc(NC(=O)c4ccc(OCCN5CCOCC5)cc4)c3)cc21", "1.46%"],
  ["CN1CCC(C(=O)Nc2n[nH]c3nnc(-c4ccccc4)cc23)CC1", "3.75%"],
  ["CCn1c(-c2nonc2N)nc2cncc(C(=O)N3CCNCC3)c21", "4.62%"],
  ["COc1ccc2cc(-c3c(-c4ccncc4)nc(-c4ccc([S+](C)[O-])cc4)n3C)ccc2c1 (configuration not stated)", "3.34%"],
  ["NS(=O)(=O)c1cccc(-c2ccc3c(NC(=O)C4CC4)n[nH]c3c2)c1", "-4.43%"],
  ["COc1ccccc1Nc1ncc(-c2ccccc2)o1", "3.16%"],
  ["CS(=O)(=O)Nc1ccc(N/C=C2\\C(=O)Nc3ccccc32)cc1", "-3.83%"],
  ["COc1cc2ncn(-c3cc(OCc4ccccc4Cl)c(C(N)=O)s3)c2cc1OC", "-2.74%"],
  ["Nc1ncnc2occ(-c3ccc(NC(=O)Nc4cccc(C(F)(F)F)c4)cc3)c12", "2.71%"],
  ["CS(=O)(=O)CCNCc1ccc(-c2ccc3ncnc(Nc4ccc(OCc5ccccc5)c(Cl)c4)c3c2)o1", "-1.33%"],
  ["Cc1nnc(-c2ccc(C)c(-c3ccc(C(=O)Nc4cccc(C#N)c4)cc3)c2)o1", "1.97%"],
  ["COc1ccc(-c2ccncc2)cc1C(N)=O", "1.71%"]
]}

----------
- systemTested: Serine/threonine-protein kinase MRCK beta (Homo sapiens);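 note: values are mean percent inhibition of MRCKB, screened as part of the GSK PKIS kinase inhibitor set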
- assayConditions: at 0.1 µM
Cut-off 0.5% on inhibition, inclusive. At or above means yes; below means no.

{"columns": ["compound", "classAssignment"],
 "data": [
  ["Cc1cc(O)cc(C)c1/C=C/c1cncc(-c2nn[nH]n2)c1", "no"],
  ["O=C1NC(=O)C(c2cccc(Cl)c2)=C1Nc1ccc(O)c(Cl)c1", "yes"],
  ["COc1ccc(COc2ccc(Cc3cnc(N)nc3N)cc2OC)cc1", "yes"],
  ["NS(=O)(=O)c1cccc(-c2ccc3c(NC(=O)C4CC4)n[nH]c3c2)c1", "no"],
  ["CCN1CCC(CC(=O)Nc2n[nH]c3nc(-c4cccs4)c(Br)cc23)CC1", "no"],
  ["CC1=C(C(=O)Nc2ccc3[nH]ncc3c2)C(c2ccc3ccccc3c2)CC(=O)N1 (stereo unspecified)", "yes"]
]}

----------
- systemTested: PAS domain-containing serine/threonine-protein kinase (Homo sapiens) (UniProt Q96RG2);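 note: reported value is the mean percent inhibition of PASK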
- Sequence (Q96RG2 whole entry, the tested form may be a part): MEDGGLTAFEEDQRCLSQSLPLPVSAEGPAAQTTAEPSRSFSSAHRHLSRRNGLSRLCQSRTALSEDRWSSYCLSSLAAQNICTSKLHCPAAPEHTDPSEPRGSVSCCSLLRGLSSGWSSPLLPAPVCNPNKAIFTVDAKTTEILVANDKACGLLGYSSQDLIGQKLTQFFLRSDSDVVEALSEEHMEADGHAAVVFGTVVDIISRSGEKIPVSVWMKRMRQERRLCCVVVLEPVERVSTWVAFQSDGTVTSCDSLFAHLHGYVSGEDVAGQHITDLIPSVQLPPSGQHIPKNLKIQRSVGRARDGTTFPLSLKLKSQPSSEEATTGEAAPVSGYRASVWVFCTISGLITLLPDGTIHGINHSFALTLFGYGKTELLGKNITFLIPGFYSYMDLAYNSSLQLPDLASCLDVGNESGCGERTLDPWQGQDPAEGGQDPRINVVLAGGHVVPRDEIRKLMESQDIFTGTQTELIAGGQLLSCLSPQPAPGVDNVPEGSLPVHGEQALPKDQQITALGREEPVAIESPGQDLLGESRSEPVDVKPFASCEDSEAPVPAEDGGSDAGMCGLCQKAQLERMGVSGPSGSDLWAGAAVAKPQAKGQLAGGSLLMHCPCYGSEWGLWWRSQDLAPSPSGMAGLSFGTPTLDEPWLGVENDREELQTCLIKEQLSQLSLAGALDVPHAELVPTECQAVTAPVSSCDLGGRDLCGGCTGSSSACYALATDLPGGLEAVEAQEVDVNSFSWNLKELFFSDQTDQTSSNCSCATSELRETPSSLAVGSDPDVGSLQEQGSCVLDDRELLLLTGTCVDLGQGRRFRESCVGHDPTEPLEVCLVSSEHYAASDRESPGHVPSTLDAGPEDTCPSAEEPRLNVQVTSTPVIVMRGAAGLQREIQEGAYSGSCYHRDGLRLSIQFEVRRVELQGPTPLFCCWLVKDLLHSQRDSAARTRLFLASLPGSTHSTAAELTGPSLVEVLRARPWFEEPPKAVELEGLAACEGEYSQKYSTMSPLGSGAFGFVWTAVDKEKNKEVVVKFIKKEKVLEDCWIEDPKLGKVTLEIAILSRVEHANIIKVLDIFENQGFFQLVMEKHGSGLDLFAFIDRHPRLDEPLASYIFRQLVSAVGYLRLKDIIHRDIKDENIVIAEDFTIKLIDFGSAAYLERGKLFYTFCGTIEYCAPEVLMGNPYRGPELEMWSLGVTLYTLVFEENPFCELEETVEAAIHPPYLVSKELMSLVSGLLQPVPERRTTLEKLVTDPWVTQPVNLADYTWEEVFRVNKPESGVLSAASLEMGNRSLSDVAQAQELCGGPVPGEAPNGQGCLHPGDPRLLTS
- assayConditions: at 1 µM
inhibition overview

{"columns": ["testSmiles", "inhibition [%]"],
 "data": [
  ["Nc1nc(-c2ccccn2)c(-c2ccc3ncccc3n2)s1", -0.49],
  ["Cc1nnc(-c2ccc(C)c(-c3ccc(C(=O)Nc4cccc(C#N)c4)cc3)c2)o1", 4.14],
  ["CCCN1CCC(Oc2cc(Nc3nc(Nc4cccc(F)c4C(N)=O)c4cc[nH]c4n3)c(OC)cc2Cl)CC1", 1.6],
  ["CCn1c(-c2nonc2N)nc2c(C#CC(C)(C)O)nc(OC[C@@H](N)c3ccccc3)cc21", 16],
  ["COc1cc(C)c(NC(=O)CN(C)C)cc1Nc1nc(Nc2cccc(F)c2C(N)=O)c2cc[nH]c2n1", -3.17]
]}

----------
- systemTested: Protein kinase C iota type (Homo sapiens) (UniProt P41743)
- Sequence (P41743 whole entry): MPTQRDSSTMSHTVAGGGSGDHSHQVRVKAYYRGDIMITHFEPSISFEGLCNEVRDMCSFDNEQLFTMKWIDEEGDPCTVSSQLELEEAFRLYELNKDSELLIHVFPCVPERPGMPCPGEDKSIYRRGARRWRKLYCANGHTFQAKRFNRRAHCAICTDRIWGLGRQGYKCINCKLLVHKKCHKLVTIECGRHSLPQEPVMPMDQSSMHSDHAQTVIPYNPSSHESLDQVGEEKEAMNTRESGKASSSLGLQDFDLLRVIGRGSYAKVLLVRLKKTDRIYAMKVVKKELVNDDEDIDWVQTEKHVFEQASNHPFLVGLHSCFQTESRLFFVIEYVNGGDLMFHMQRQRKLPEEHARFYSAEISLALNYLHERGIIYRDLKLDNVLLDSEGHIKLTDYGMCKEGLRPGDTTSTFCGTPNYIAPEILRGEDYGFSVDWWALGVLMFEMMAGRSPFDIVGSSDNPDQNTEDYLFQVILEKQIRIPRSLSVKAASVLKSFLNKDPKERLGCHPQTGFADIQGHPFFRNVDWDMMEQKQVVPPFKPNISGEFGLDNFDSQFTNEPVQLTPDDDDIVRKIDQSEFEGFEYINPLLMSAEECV
- assayConditions: at 0.1 µM
- Description: GSK_PKIS: PKC-iota mean inhibition at 0.1 uM [Nanosyn]
// reported inhibition per item

{"columns": ["compound", "inhibition"],
 "data": [
  ["CC1=C(C(=O)Nc2ccc3[nH]ncc3c2)C(c2ccc(Cl)c(Cl)c2)CC(=O)N1 (stereo not drawn)", "0.23%"],
  ["CCn1c(-c2nonc2N)nc2ccncc21", "0.76%"],
  ["Nc1nc(-c2ccccn2)c(-c2ccc3ncccc3n2)s1", "2.73%"],
  ["Cc1ccc(C(=O)NC2CCCCC2)cc1-c1ccc(C(=O)NCC2CC2)cc1", "0.11%"],
  ["CCn1c(-c2nonc2N)nc2cnc(Oc3cccc(NC(=O)c4ccc(OCCN5CCOCC5)cc4)c3)cc21", "23.4%"],
  ["Fc1cccc(COc2ccc(Nc3ncnc4sc(-c5cccs5)cc34)cc2Cl)c1", "0.71%"],
  ["Cc1cccc(-c2n[nH]cc2-c2ccc3ncccc3n2)n1", "0.4%"],
  ["O=C1Nc2ccc(C(=O)c3ccco3)cc2C1=Cc1cc(Cl)c(O)c(Cl)c1", "4.4%"],
  ["CS(=O)(=O)CCNCc1ccc(-c2ccc3ncnc(Nc4ccc(OCc5ccccc5)c(Cl)c4)c3c2)o1", "0.76%"],
  ["NS(=O)(=O)c1ccc(N/N=C2\\C(=O)Nc3ccc(C(=O)NCCc4c[nH]cn4)cc32)cc1", "2.26%"],
  ["Cc1nn(C)c2cc(N(C)c3ccnc(Nc4cccc(S(N)(=O)=O)c4)n3)ccc12", "2.3%"],
  ["CCn1c(-c2nonc2N)nc2c(N3CCCC3)nccc21", "0.51%"],
  ["Fc1cccc(COc2ccc(Nc3ncnc4cc(-c5ccc[nH]5)sc34)cc2Cl)c1", "1.76%"],
  ["COc1cc2ncn(-c3cc(OCc4ccccc4Cl)c(C(N)=O)s3)c2cc1OC", "1.15%"],
  ["CN(C)c1cc2c(Nc3ccc4nc(Cc5ccccc5)[nH]c4c3)ncnc2cn1", "2.13%"],
  ["O=C1NC(=O)C(N2CCc3ccccc32)=C1c1ccc(Cl)cc1", "1.4%"],
  ["COc1ccc(-c2ccncc2)cc1C(N)=O", "0.36%"],
  ["COc1ccc(-c2nn3ncccc3c2-c2ccnc(Nc3ccc(Cl)c(C(F)(F)F)c3)n2)cc1", "0.28%"]
]}

----------
- systemTested: Serine/threonine-protein kinase PAK 3 (Homo sapiens);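 note: mean percent inhibition of PAK3, measured in a screen of the GSK published kinase inhibitor set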
- assayConditions: at 0.1 µM
outcomeMeasure: inhibition (%)

{"columns": ["compound", "testValue"],
 "data": [
  ["COc1cc2ncn(-c3cc(O[C@H](C)c4ccccc4Cl)c(C(N)=O)s3)c2cc1OC", 4.18],
  ["[O-][S+]1CCN(Cc2ccc(-c3ccc4ncnc(Nc5ccc(OCc6ccccc6)c(F)c5)c4c3)o2)CC1", 1.32],
  ["COc1cc2ncn(-c3cc(OCc4ccccc4C(F)(F)F)c(C(N)=O)s3)c2cc1OC", 5.55],
  ["COc1ccc(-c2nn3ncccc3c2-c2ccnc(Nc3ccc(Cl)c(C(F)(F)F)c3)n2)cc1", 2.32],
  ["O=C1NC(=O)C(c2cccc(Cl)c2)=C1Nc1ccc(O)c(Cl)c1", 1.1],
  ["CC(C)=Cc1cccc2c1/C(=N/Nc1ccc(S(N)(=O)=O)cc1)C(=O)N2", 0.22],
  ["COc1ccc2cc(-c3c(-c4ccncc4)nc(-c4ccc([S+](C)[O-])cc4)n3C)ccc2c1 (stereo not given)", 3.03],
  ["O=C1NC(=O)C(c2ccc(Cl)cc2)=C1Nc1ccc(Cl)c(C(=O)O)c1", -3.46],
  ["COc1cc(C)c(NC(=O)CN(C)C)cc1Nc1nc(Nc2cccc(F)c2C(N)=O)c2cc[nH]c2n1", 1.84],
  ["CS(=O)(=O)CCNCc1ccc(-c2ccc3ncnc(Nc4ccc(OCc5cccc(F)c5)c(C(F)(F)F)c4)c3c2)o1", 4.46]
]}

----------
A collection of compounds and their measured inhibition
- systemTested: Serine/threonine-protein kinase PAK 5 (Homo sapiens) (UniProt Q9P286);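 note: values are mean percent inhibition of PAK5 from a kinase inhibitor set screen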
- Sequence (Q9P286 whole entry, looked up): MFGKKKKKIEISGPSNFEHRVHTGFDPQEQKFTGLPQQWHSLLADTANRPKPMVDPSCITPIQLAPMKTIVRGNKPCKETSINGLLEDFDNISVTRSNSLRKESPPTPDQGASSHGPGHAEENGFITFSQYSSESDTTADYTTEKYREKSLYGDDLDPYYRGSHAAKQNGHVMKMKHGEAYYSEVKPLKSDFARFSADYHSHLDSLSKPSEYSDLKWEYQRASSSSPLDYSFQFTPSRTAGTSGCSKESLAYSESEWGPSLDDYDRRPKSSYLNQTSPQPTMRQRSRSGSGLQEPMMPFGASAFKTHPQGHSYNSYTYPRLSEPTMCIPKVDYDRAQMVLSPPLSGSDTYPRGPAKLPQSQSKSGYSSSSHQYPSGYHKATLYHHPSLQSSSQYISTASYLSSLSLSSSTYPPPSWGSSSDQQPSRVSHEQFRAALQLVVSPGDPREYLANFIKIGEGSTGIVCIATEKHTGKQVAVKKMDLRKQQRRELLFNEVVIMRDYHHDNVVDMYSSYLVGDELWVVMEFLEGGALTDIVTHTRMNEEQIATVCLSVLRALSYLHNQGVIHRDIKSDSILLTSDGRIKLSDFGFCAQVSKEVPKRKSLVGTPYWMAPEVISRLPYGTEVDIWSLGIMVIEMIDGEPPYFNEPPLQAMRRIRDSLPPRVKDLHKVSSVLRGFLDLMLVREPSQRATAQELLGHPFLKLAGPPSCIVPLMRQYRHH
- assayConditions: at 0.1 µM
outcomeMeasure: inhibition (%)

{"columns": ["compound", "testValue"],
 "data": [
  ["COc1cc2ncn(-c3cc(O[C@@H](C)c4ccccc4Cl)c(C(N)=O)s3)c2cc1OC", 2.62],
  ["CCn1c(-c2nonc2N)nc2c(C#CC(C)(C)O)nc(CN3CCCC3)cc21", -4.5],
  ["NC(=O)c1cccc(Nc2nccc(Nc3cccc4[nH]ncc34)n2)c1", -1.09],
  ["CCCN1CCC(Oc2cc(Nc3nc(Nc4cccc(F)c4C(N)=O)c4cc[nH]c4n3)c(OC)cc2Cl)CC1", 6.57],
  ["COC(=O)Nc1nc2cc(Oc3cccc(NC(=O)Nc4cc(C(F)(F)F)ccc4F)c3)ccc2[nH]1", 0.91],
  ["O=C1NC(=O)C(c2ccccc2Cl)=C1Nc1cccc(O)c1", 11.9],
  ["COc1ccccc1Nc1ncc(-c2ccccc2)o1", -2.83],
  ["O=C1Nc2ccc(C(=O)c3ccco3)cc2C1=Cc1cc(Cl)c(O)c(Cl)c1", 0.93],
  ["COc1ccc2cc(-c3c(-c4ccncc4)nc(-c4ccc([S+](C)[O-])cc4)n3C)ccc2c1 (centres undefined)", -4.32],
  ["COc1cc(C)c(NC(=O)CN(C)C)cc1Nc1nc(Nc2cccc(F)c2C(N)=O)c2cc[nH]c2n1", -4.59],
  ["CCN1CCC(CC(=O)Nc2n[nH]c3nc(-c4cccs4)c(Br)cc23)CC1", 0.15],
  ["NS(=O)(=O)c1cccc(-c2ccc3c(NC(=O)C4CC4)n[nH]c3c2)c1", 7.33],
  ["COc1cc2ncn(-c3cc(O[C@H](C)c4ccccc4Cl)c(C(N)=O)s3)c2cc1OC", 7.14],
  ["CCn1c(-c2nonc2N)nc2c(C#CC(C)(C)O)nc(OC[C@@H](N)c3ccccc3)cc21", 87]
]}
